Assay: Toxicity in human erythrocytes assessed as hemolysis after 1 hr
Type: cell-based, Erythrocyte
Square brackets hold non-standard residues; d marks the D form. Peptide text beside a SMILES is read from it. 2Nal = N[C@@H](Cc1ccc2ccccc2c1)C(=O)O; Aoc = NCCCCCCCC(=O)O; GABA = NCCCC(=O)O
The entries below are paired with their reported EC50 at 1 hr.

# count of solved cases: 6
[
  {
    "molecule": "CC(C)C[C@@H]1NC(=O)CNC(=O)[C@H](Cc2ccccc2)NC(=O)[C@H](CCCCN)NC(=O)[C@H](CC(C)C)NC(=O)[C@H](Cc2ccccc2)NC(=O)[C@H](CCCCN)NC1=O (cyclo(FGLKFLK))",
    "EC50 at 1 hr": "> 150 µM"
  },
  {
    "molecule": "CC(C)C[C@@H]1NC(=O)[C@H](Cc2ccc3ccccc3c2)NC(=O)[C@H](CCCNC(=N)N)NC(=O)[C@@H]2CCCN2C(=O)CNC(=O)[C@H](Cc2ccc3ccccc3c2)NC(=O)[C@H](CCCNC(=N)N)NC1=O (cyclo([2Nal]GPR[2Nal]LR))",
    "EC50 at 1 hr": "> 150 µM"
  },
  {
    "molecule": "CC(C)C[C@@H]1NC(=O)CNC(=O)[C@H](Cc2ccc(O)cc2)NC(=O)[C@H](CCCNC(=N)N)NC(=O)[C@H](CC(C)C)NC(=O)[C@H](Cc2ccc3ccccc3c2)NC(=O)[C@H](CCCNC(=N)N)NC1=O (cyclo([2Nal]LRYGLR))",
    "EC50 at 1 hr": "> 150 µM"
  },
  {
    "molecule": "CC(C)C[C@@H]1NC(=O)CCCNC(=O)[C@H](Cc2ccc3ccccc3c2)NC(=O)[C@H](CCCNC(=N)N)NC(=O)[C@H](CC(C)C)NC(=O)[C@H](Cc2ccc3ccccc3c2)NC(=O)[C@H](CCCNC(=N)N)NC1=O (cyclo([2Nal][GABA]LR[2Nal]LR))",
    "EC50 at 1 hr": "230 µM"
  },
  {
    "molecule": "CC(C)C[C@@H]1NC(=O)CCCCCCCNC(=O)[C@H](Cc2ccc3ccccc3c2)NC(=O)[C@H](CCCNC(=N)N)NC(=O)[C@H](CC(C)C)NC(=O)[C@H](Cc2ccc3ccccc3c2)NC(=O)[C@H](CCCNC(=N)N)NC1=O (cyclo([2Nal][Aoc]LR[2Nal]LR))",
    "EC50 at 1 hr": "22 µM"
  },
  {
    "molecule": "CC(C)C[C@@H]1NC(=O)CNC(=O)[C@H](Cc2c[nH]c3ccccc23)NC(=O)[C@H](CCCCN)NC(=O)[C@H](CC(C)C)NC(=O)[C@H](Cc2c[nH]c3ccccc23)NC(=O)[C@H](CCCCN)NC1=O (cyclo(GLKWLKW))",
    "EC50 at 1 hr": "> 150 µM"
  }
]

Data point: CCCCCCC1NC(=O)[C@H](Cc2ccc3ccccc3c2)NC(=O)[C@H](CCCNC(=N)N)NC(=O)[C@H](CC(C)C)NC(=O)CNC(=O)[C@H](Cc2ccc3ccccc3c2)NC(=O)[C@H](CCCNC(=N)N)NC1=O (stereo partly specified) ; EC50 at 1 hr = 33 µM
